Task for the reader: assign each of the following compounds its reported half-life.
testProtocol: Half life in human liver microsomes
Assay type: ADME, Microsome
Provide only the numeric value, understood in min.

Noted for Cc1oc(-c2ccccc2)nc1CN1CCC[C@@H](C(=O)NC[C@H]2CCCO2)C1 : its half-life reads 11.6

The value of half-life measured for the compound CC[C@H]1C[C@@H](C(=O)NCC2CCOCC2)CN(Cc2nc(-c3ccccc3)oc2C)C1 turned out to be 4.32

Form field half-life, entry CC[C@@H]1C[C@@H](C(=O)NCC2CCOCC2)CN(Cc2nc(N3CCOCC3)oc2C)C1 : 6.88

Kindly note the recorded half-life for Cc1oc(-c2ccccc2)nc1CN1CCC[C@@H](C(=O)NC[C@@H]2CCCO2)C1 , which is 14.1

Notebook: COC[C@H]1C[C@@H](C(=O)NC[C@H]2CCCO2)CN(Cc2nc(-c3ccccc3)oc2C)C1 , half-life read as 24.2

The recorded half-life for entry CC[C@H]1C[C@@H](C(=O)NCC2CCOCC2)CN(Cc2nc(N3CCOCC3)oc2C)C1 equals 24.1

Documented half-life of CC[C@@H]1C[C@@H](C(=O)NCc2cccc(N)n2)CN(Cc2nc(N3CCOCC3)oc2C)C1 : 8.9

Input COC[C@@H]1C[C@@H](C(=O)NCC2CCOCC2)CN(Cc2nc(-c3ccccc3)oc2C)C1 . Output half-life: 4.09

# compound Cc1oc(-c2ccccc2)nc1CN1CCC[C@@H](C(=O)NCc2cccc(N)n2)C1 ; its half-life = 20.5

Field half-life (entry CC[C@H]1C[C@@H](C(=O)NC[C@H]2CCCO2)CN(Cc2nc(-c3ccccc3)oc2C)C1 ) reads 8.15

Measured half-life of CC[C@@H]1C[C@@H](C(=O)NCc2cccc(N)n2)CN(Cc2nc(-c3ccccc3)oc2C)C1 : 3.47

Lab book: half-life of CC[C@@H]1C[C@@H](C(=O)NC[C@@H]2CCCO2)CN(Cc2[nH]c(-c3ccncn3)nc2C)C1 noted as 5

Measured half-life, COC[C@@H]1C[C@@H](C(=O)NC[C@H]2CCCO2)CN(Cc2nc(-c3ccccc3)oc2C)C1 : 4.2

Measured half-life of Cc1cccc(CNC(=O)C2CCCN(Cc3nc(-c4ccccc4)oc3C)C2)n1 (centres undefined) : 5.76

Given item COC[C@@H]1C[C@@H](C(=O)NCC2CCOCC2)CN(Cc2[nH]c(-c3ccncn3)nc2C)C1 , the value recorded as its half-life is 15.5

The compound listed as COC[C@H]1C[C@@H](C(=O)NCC2CCOCC2)CN(Cc2nc(N3CCOCC3)oc2C)C1 has a reported half-life of 50.7

Summary for this compound, Cc1noc([C@@H]2C[C@@H](C(=O)NC[C@@H]3CCCO3)CN(Cc3nc(-c4ccccc4)oc3C)C2)n1 : half-life is 5.68

Notebook: CC[C@H]1C[C@H](C(=O)NCc2cccc(C)n2)CN(Cc2nc(-c3ccccc3)oc2C)C1 , half-life read as 3

The recorded half-life for CC[C@H]1C[C@@H](C(=O)NCc2cccc(N)n2)CN(Cc2nc(N3CCOCC3)oc2C)C1 is 31.1

Record Cc1oc(-c2ccccc2)nc1CN1CCCC(C(=O)NCC2CCOCC2)C1 (centres undefined) . Reported half-life: 9.34

get_value(item= COC[C@@H]1C[C@@H](C(=O)NCC2CCOCC2)CN(Cc2nc(N3CCOCC3)oc2C)C1 , readout=half-life) returns 30.8

# half-life of CC[C@@H]1C[C@@H](C(=O)NC[C@@H]2CCCO2)CN(Cc2nc(N3CCOCC3)oc2C)C1 = 7.45

Per the record, COC[C@@H]1C[C@@H](C(=O)NC[C@H]2CCCO2)CN(Cc2nc(N3CCOCC3)oc2C)C1 has half-life of 23.7

GET /value?item= COC[C@H]1C[C@@H](C(=O)NCc2cccc(C)n2)CN(Cc2nc(-c3ccccc3)oc2C)C1 &field=half-life returns 9.17

# compound CC[C@H]1C[C@@H](C(=O)NCc2cccc(C)n2)CN(Cc2nc(-c3ccccc3)oc2C)C1 ; its half-life = 7.71

The measured half-life associated with COC[C@H]1C[C@@H](C(=O)NCC2CCOCC2)CN(Cc2nc(-c3ccncn3)[nH]c2C)C1 reads 49.2

Form field half-life, entry CC[C@H]1C[C@@H](C(=O)NC[C@@H]2CCCO2)CN(Cc2nc(N3CCOCC3)oc2C)C1 : 51.7

// provenance: ChEMBL document CHEMBL1777746
